- Test system: P388 leukemia ip, CD2F1 mice, survival T/C
- EXPERIMENTAL DETAILS: NCI In Vivo Anticancer Drug Screen. Data for tumor model P388 Leukemia (intraperitoneal) in CD2F1 (CDF1) mice
- CONDITION SET: endpoint: median survival time; dose: 100.0 mg/kg/injection; schedule: Q04DX003 (ip); vehicle: Klucel (hydroxypropylcellulose) (HPC); higher = longer survival
Inconclusive results and toxic doses are left out.
compounds and their reported T/C

Before answering, review these 5 worked examples.
# MOLECULE SMILES, MEASUREMENT
records = [
    ("CC=C=CCN(C)Cc1ccccc1", "88 % of control"),
    ("O=S1(=O)CCOc2ccccc2N1", "96 % of control"),
    ("O=[N+]([O-])c1cc2c([N+](=O)[O-])cccc2o1", "102 % of control"),
    ("CCCn1c2ccccc2c2ccccc21", "104 % of control"),
    ("NC(=S)c1ccccc1N=Cc1ccccn1", "100 % of control"),
]

Input: Sample CC1=CC(=O)C=CC1=Nc1ccc(N(CCCl)CCCl)cc1 — what was its T/C?
Output: 102 % of control

Input: Lookup CCCCCCCCCCCCCCCCSc1nc2ccc(N=Cc3ccccc3O)cc2s1
Output: 92 % of control

Input: Lookup Cc1cc(C(=O)c2ccccc2)on1
Output: 104 % of control

Input: Lookup O=C(S)CC(O)(c1ccccc1)c1ccccc1
Output: 105 % of control

Input: Lookup CCO/C([O-])=C(\C=N\S(=O)(=O)c1ccc(C)cc1)[n+]1ccc(C)cc1
Output: 103 % of control

Input: Lookup Cc1cn(C)c2c1-c1oncc1CC2
Output: 100 % of control

Input: Lookup O=c1[nH]cnc2cc(NCc3ccccc3)c([N+](=O)[O-])cc12
Output: 100 % of control

Input: Lookup CCn1c2ccccc2c2cc(N=Nc3ccc(N)c4ccccc34)ccc21
Output: 97 % of control

These data points were gathered from PubChem BioAssay AID330.
